The measurements presented in this section are drawn from patent US10155021B2.

Can you tell me MIC for the items I'm about to list?
- System: S. aureus ATCC 43300 (MRSA, FQ-S)
- assay: MIC, selected panel of Gram-positive and Gram-negative strains (Example 5)
- Assay type: cell-based, Staphylococcus aureus
- experimentalSetup: Staphylococcus aureus; read-out: MIC S. aureus ATCC 43300 (MRSA, FQ-S)

compound=Cc1c(-c2cnc(N)nc2)ccn2c(=O)c(C(=O)O)cc(C3CC3)c12 reportedresult="0.25 µg/mL"
compound="C[C@H]1c2cccc(O)c2C(=O)C2=C(O)[C@]3(O)C(=O)C(C(N)=O)=C(O)[C@@H](N(C)C)[C@@H]3[C@@H](O)[C@@H]21 [Doxycycline, reference compound]" reportedresult="0.25 µg/mL"

Give me MIC for each of these compounds, listed below.
1. Cc1c(-c2ccc(CN)c(F)c2)ccn2c(=O)c(C(=O)O)cc(C3CC3)c12
2. Cc1c(-c2ccc(C(=O)C(F)(F)F)cc2)ccn2c(=O)c(C(=O)O)cc(C3CC3)c12
3. C[C@H]1COc2c(N3CCN(C)CC3)c(F)cc3c(=O)c(C(=O)O)cn1c23 [Levofloxacin, reference compound]
4. Cc1c(-c2ccc3c(c2)NC(=O)C(N)C3)ccn2c(=O)c(C(=O)O)cc(C3CC3)c12 (stereo not drawn)

[A]
1. 0.032 to 0.064 µg/mL
2. 0.032 µg/mL
3. 0.25 µg/mL
4. 0.064 µg/mL
